Hey, just so you know, these numbers are from FireProtDB (doi:10.1021/bi00025a018).

B1: Ribonuclease HI, P0A7Y4 (parent)
chain: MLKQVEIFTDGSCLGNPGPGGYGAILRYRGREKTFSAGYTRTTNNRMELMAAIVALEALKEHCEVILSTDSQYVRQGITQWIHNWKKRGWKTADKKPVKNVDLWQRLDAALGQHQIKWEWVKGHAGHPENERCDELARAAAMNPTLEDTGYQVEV

- Variants of: B1
- Test Context: Escherichia coli (strain K12); pH 3; Thermal; CD; glycine-HCl 10 mM; NaCl 0.1 M; reversible: yes; structure 2RN2; whole UniProt chain shown
Test Readout: Tm (°C)
Provide the reading as a plain figure in °C.

# query: Tm of entry H62P
54.3

Param item = V74L ; retrieve measured Tm.
54.6

# query: Tm of entry D134H
53.6

Name the reported Tm value associated with the variant G23A
53.2
